Would you mind telling me the reported half-life at 1 µM of each entry?
- experiment description: In vitro metabolic stability, rat liver microsomes (Monash)
- Format: in vitro ADME
- assay conditions: NADPH, read-out: T1/2
Give bare numbers, in min.

c1ccc(-c2nc3n(c2-c2ccc4c(c2)OCO4)CCC3)nc1: 29

Lookup: # return recorded half-life at 1 µM for entry c1ccc(-c2nc3n(c2-c2ccc4sccc4c2)CCC3)nc1
Found: 3

###

- experiment description: Human liver microsome intrinsic clearance
- Type: in vitro ADME
- assay conditions: human liver microsomes, NEU; read-out: HLM CLint (uL/min/mg protein) (NEU)
quantity name: microsomal CLint (µL/min/mg)
Give bare numbers, in µL/min/mg.

COc1cccc(-c2nc3ccccn3c2N(CC(C)C)c2ccc(F)cc2)n1: 86.8
CC(C)CN(c1ccc(F)cc1)c1c(-c2ccccn2)nc2ccc(F)cn12: 51.2

Okay, now this compound:
Lookup: Give reported microsomal CLint value for CC(C)CN(c1ccc(F)cc1)c1c(-c2ccccn2)nc2cc(F)ccn12
Found: 13.6

###

- experiment description: Human liver microsome intrinsic clearance
- Assay type: in vitro ADME
- assay conditions: human liver microsomes, NEU
quantity name: HLM CLint (NEU) (uL/min/mg protein)
Give bare numbers, in uL/min/mg protein.

Cc1cccc(-c2c(-c3ccccn3)nc3n2CCC3)c1: 76.1
Clc1ccc(-c2c(-c3ccccn3)nc3n2CCC3)cc1Cl: 100
Cc1nc2cc(-c3c(-c4ccccn4)nc4n3CCC4)ccc2s1: 34.1
Cc1ccc(-c2c(-c3ccccn3)nc3ccccn23)cc1: 122
c1ccc(-c2nc3n(c2-c2ccc4sc5ccccc5c4c2)CCC3)nc1: 42.6

Take each entry in turn and give its HLM CLint (NEU).
1. CCN(c1ccc(F)cc1)c1c(-c2ccccn2)nc2ccccn12
2. N#Cc1ccc(-c2c(-c3ccccn3)nc3n2CCC3)cc1
3. c1ccc(-c2c(-c3ccccn3)nc3n2CCC3)cc1
4. Cc1ccc(-c2c(-c3ccccn3)nc3n2CCC3)cc1
5. COc1ccc(-c2nc3ccc(OC)cn3c2N(C)c2ccc(F)cc2)nc1
6. CC(C)CN(c1ccc(F)cc1)c1c(-c2ccccn2)nc2ccccn12
7. CCCN(c1ccc(F)cc1)c1c(-c2ccccn2)nc2ccccn12
8. FC(F)(F)Oc1ccc(-c2c(-c3ccccn3)nc3n2CCC3)cc1

Found:
[180, 99.1, 64, 82, 261, 58.8, 61.8, 62.2]

// input: 5 compounds below; output: HLM CLint (NEU) for each
1. Cc1ccc(-c2c(-c3ccccn3)nc3cc(Cl)ccn23)cc1
2. COc1ccc2nc(-c3ccccn3)c(N(C)c3ccc(F)cc3)n2c1
3. Fc1ccc(-c2c(-c3ccccn3)nc3ccccn23)cc1
4. c1ccc(-c2nc3n(c2-c2ccc4sccc4c2)CCC3)nc1
5. N#Cc1cccc(-c2c(-c3ccccn3)nc3n2CCC3)c1

Found:
1: 65.6; 2: 251; 3: 168; 4: 61.5; 5: 43.7

###

- experiment description: Aqueous solubility
- Assay type: physicochemical
- assay conditions: NEU
Assign Aqueous Solubility (NEU) to each entry below.
Answers are plain numbers, in µM.

Cc1ccc(-c2c(-c3ccccn3)nc3cc(Cl)ccn23)cc1: 5

Hello, I would appreciate it if you could give Aqueous Solubility (NEU) for each entry below.
1. Fc1ccc(-c2c(-c3ccccn3)nc3ccccn23)cc1
2. C[S+]([O-])c1ccc(-c2c(-c3ccccn3)nc3n2CCC3)cc1 (centres unmarked)

Found:
1. 178
2. 756

Please state, for each entry, its recorded Aqueous Solubility (NEU).
1. Cc1ccc(-c2c(-c3ccccn3)nc3ccccn23)cc1
2. Cc1ccc(-c2c(-c3ccccn3)nc3n2CCC3)cc1
3. CC(C)CN(c1ccc(F)cc1)c1c(-c2ccccn2)nc2ccccn12
4. c1ccc(-c2nc3n(c2-c2ccc4sccc4c2)CCC3)nc1

Found:
1: 43; 2: 32; 3: 8; 4: 3

###

- experiment description: Rat liver microsome (RLM) metabolic stability (UNC)
- Format: in vitro ADME
- assay conditions: rat liver microsomes
quantity name: CLint scaled
Number first, unit second.

Lookup: Specify reported CLint scaled for the molecule shown: c1ccc(-c2nc3n(c2-c2ccc4c(c2)OCO4)CCC3)nc1
Found: 142 mL/min/kg

###

- experiment description: Distribution coefficient estimation using chromatography, gLogD (Monash)
- Type: physicochemical
quantity name: gLogD at pH 7.4
Answers are plain numbers.

c1ccc(-c2nc3n(c2-c2ccc4c(c2)OCO4)CCC3)nc1 [compound 812]: 1.5
c1ccc(-c2nc3n(c2-c2ccc4c(c2)OCO4)CCS3)nc1 [UNC-ALM-DAI-16]: 1.6
c1ccc(-c2nc3n(c2-c2ccc4occc4c2)CCC3)nc1 [UNC-ALM-DAI-27]: 1.9

Lookup: Please give measured gLogD at pH 7.4 of the following entry: c1ccc(-c2nc3ccccn3c2-c2ccc3c(c2)OCO3)nc1 [UNC-ALM-DAI-18]
Found: 1.8

###

Would you kindly list half-life at 1 µM for each of these compounds?
- experiment description: In vitro metabolic stability, human liver microsomes (Monash)
- Type: in vitro ADME
- assay conditions: Monash, read-out: HLM t1/2 (Monash)
Numbers only, in min.

Illustrative cases are given below, each with its answer.
c1ccc(-c2nc3ccccn3c2-c2ccc3c(c2)OCO3)nc1: 37
c1ccc(-c2nc3n(c2-c2ccc4c(c2)OCO4)CCS3)nc1: 47

Then this compound:
Lookup: Indicate its recorded half-life at 1 µM; the compound in question is c1ccc(-c2nc3n(c2-c2ccc4occc4c2)CCC3)nc1
Found: 34

###

- experiment description: Rat hepatocyte intrinsic clearance
- Format: in vitro ADME
- assay conditions: rat, hepatocytes; Figure 4; read-out: Rat Hep CLint
hepatocyte CLint vs 100 µL/min/1e6 cells: less than gives Met; not less than gives Not met.

Cc1ccc(-c2c(-c3ccccn3)nc3ccccn23)cc1 [compound 1018]: Met

Lookup: Bench note: check whether Cc1ccc(-c2c(-c3ccccn3)nc3cc(Cl)ccn23)cc1 [compound 978] shows hepatocyte CLint below 100 µL/min/1e6 cells
Found: Not met

Lookup: hepatocyte CLint strictly < 100 µL/min/1e6 cells for this compound? CC(C)CN(c1ccc(F)cc1)c1c(-c2ccccn2)nc2ccccn12 [compound 983]
Found: Not met

Lookup: Please state whether hepatocyte CLint is below 100 µL/min/1e6 cells for C[S+]([O-])c1ccc(-c2c(-c3ccccn3)nc3n2CCC3)cc1 (centres unmarked) [compound 838]
Found: Met

Lookup: Item CN(C)C(=O)c1ccc(-c2c(-c3ccccn3)nc3n2CCC3)cc1 [compound 974] : hepatocyte CLint beneath 100 µL/min/1e6 cells, strictly?
Found: Met

Lookup: Say whether its hepatocyte CLint is strictly beneath 100 µL/min/1e6 cells. Entry: CCCN(c1ccc(F)cc1)c1c(-c2ccccn2)nc2ccccn12 [compound 982]
Found: Not met

Lookup: For this compound, is hepatocyte CLint lower than 100 µL/min/1e6 cells? CS(=O)(=O)c1ccc(-c2c(-c3ccccn3)nc3n2CCC3)cc1 [compound 837]
Found: Met

Lookup: Does this compound meet the criterion hepatocyte CLint < 100 µL/min/1e6 cells? Fc1ccc(-c2c(-c3ccccn3)nc3ccccn23)cc1 [compound 859]
Found: Met

###

- System: MRC-5SV2 (human lung fibroblast cell line)
- experiment description: Toxicity against MRC-5SV2
- Type: cell-based
- assay conditions: MRC5 cells
Give MRC5 TC50 for every item shown.
Numbers only, in µM.

Give measured MRC5 TC50 for every item shown.
1. N#Cc1ccc(-n2c(-c3ccccn3)nc3ccccc32)cc1
2. c1ccc(-c2nc3ccccc3n2-c2ccc(N3CCOCC3)cc2)nc1
3. Fc1cc(-c2c(-c3ccccn3)nc3n2CCC3)ccn1
4. Fc1ccc(-c2c(-c3ccccn3)nc3ccccn23)cc1
5. COc1ccn2cc(-c3ccccn3)nc2c1
6. N#Cc1ccc(-c2c(-c3ccccn3)nc3n2CCC3)cn1

Found:
1: 64; 2: 64; 3: 30.55; 4: 10.3; 5: 51.6; 6: 64

Provide MRC5 TC50 for all items below, preserving their order.
1. Fc1ccc(Nc2c(-c3ccccn3)nc3sccn23)cc1
2. N#Cc1ccc(-c2c(-c3ccccn3)nc3n2CCC3)cc1
3. Fc1ccc(N(CC2CC2)c2c(-c3ccccn3)nc3ccccn23)cc1
4. CCCCN(Cc1c(-c2ccccn2)nc2cc(C)ccn12)c1ccc(F)cc1

Found:
[6.4, 25.9, 7.8, 16]

###

- experiment description: In vitro metabolic stability, human liver microsomes (Monash)
- Format: in vitro ADME
- assay conditions: NADPH, read-out: T1/2
quantity name: half-life at 1 µM (min)
Give bare numbers, in min.

c1ccc(-c2nc3n(c2-c2ccc4sccc4c2)CCC3)nc1: 24

Alright, here's another molecule for you.
Lookup: Annotate the molecule c1ccc(-c2nc3n(c2-c2ccc4c(c2)OCO4)CCC3)nc1 with its measured half-life at 1 µM.
Found: 62

###

- experiment description: Mouse liver microsome (MLM) metabolic stability (UNC)
- Type: in vitro ADME
- assay conditions: mouse, liver microsomes
Can you tell me CLint scaled for the items I'm about to list?
Numbers only, in mL/min/kg.

c1ccc(-c2nc3n(c2-c2ccc4c(c2)OCO4)CCC3)nc1: 569
c1ccc(-c2nc3n(c2-c2ccc4sccc4c2)CCC3)nc1: 1170

Then there is this molecule:
Lookup: Fill in reported CLint scaled for this entry: c1ccc(-c2nc3n(c2-c2ccc4c(c2)OCO4)CCS3)nc1
Found: 619
